Entries and their measured pIC50 follow.
SYSTEM_NAME: human ETA receptors (Homo sapiens, UniProt P25101)
Construct: endogenous in cells; host or cells: TE 671 cells (ATCC HTB 139)
Sequence (P25101 21-427): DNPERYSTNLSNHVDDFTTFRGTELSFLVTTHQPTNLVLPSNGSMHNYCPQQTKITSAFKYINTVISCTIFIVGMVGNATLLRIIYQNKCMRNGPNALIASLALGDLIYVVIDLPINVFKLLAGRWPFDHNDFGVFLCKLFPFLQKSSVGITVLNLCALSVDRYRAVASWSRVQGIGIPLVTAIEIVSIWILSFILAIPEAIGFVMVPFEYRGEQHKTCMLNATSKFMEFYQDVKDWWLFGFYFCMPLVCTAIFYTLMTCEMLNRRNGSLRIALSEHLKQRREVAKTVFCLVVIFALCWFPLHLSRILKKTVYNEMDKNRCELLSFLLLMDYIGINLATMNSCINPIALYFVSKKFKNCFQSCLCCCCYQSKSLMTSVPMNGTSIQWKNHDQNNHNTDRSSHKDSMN
EXPERIMENT_NOTES: Binding Test #1: inhibition of 125I-ET-1 binding to ETA receptors (TE 671 cell membranes)
CONDITION_DETAILS: Table 1; † incubation at 24° C.; read-out: ETA
pIC50: −log10 of the molar value.
READOUT_LABEL: pIC50

>>> df
                                    compound                               system_name  bound_type  reading
 0  Cc1cc2c(cc1CCc1sccc1S(=O)(=O)Nc1onc(C)c1Br)OCO2  human ETA receptors (Homo sapiens, UniProt P25101)           =     7.21
 1  Cc1ccc(Cc2cc(-c3ccc(C)cc3)sc2S(=O)(=O)Nc2onc(C)c2Br)cc1  human ETA receptors (Homo sapiens, UniProt P25101)           =     5.33
 2  Cc1ccc(-c2ccc(S(=O)(=O)Nc3onc(C)c3Br)s2)o1  human ETA receptors (Homo sapiens, UniProt P25101)           =     4.49
 3  Cc1noc(NS(=O)(=O)c2ccsc2C(=O)NC(=O)c2ccc3c(c2)OCO3)c1Br  human ETA receptors (Homo sapiens, UniProt P25101)           =     7.05
 4  Cc1cc(C)c(NC(=O)c2sccc2S(=O)(=O)Nc2onc(C)c2Cl)c(C)c1  human ETA receptors (Homo sapiens, UniProt P25101)           =     9.20
 5  Cc1ccc(/C=C/c2cc(-c3ccc(C)cc3)sc2S(=O)(=O)Nc2onc(C)c2Br)cc1  human ETA receptors (Homo sapiens, UniProt P25101)           =     5.16
 6  CC(=O)c1cc2c(cc1NC(=O)c1sccc1S(=O)(=O)Nc1onc(C)c1Cl)OCO2  human ETA receptors (Homo sapiens, UniProt P25101)           =     8.00
 7  Cc1noc(NS(=O)(=O)c2c(C(C)C)sc3ccccc23)c1Br  human ETA receptors (Homo sapiens, UniProt P25101)           =     7.52
 8   Cc1noc(NS(=O)(=O)c2sccc2CCc2ccccc2)c1Br  human ETA receptors (Homo sapiens, UniProt P25101)           =     6.17
 9  Cc1noc(NS(=O)(=O)c2sccc2-c2ccc3c(c2)OCO3)c1Br  human ETA receptors (Homo sapiens, UniProt P25101)           =     6.30
10    CCCc1sc2ccccc2c1S(=O)(=O)Nc1onc(C)c1Br  human ETA receptors (Homo sapiens, UniProt P25101)           =     7.13
11  Cc1cccc(-c2ccc(S(=O)(=O)Nc3onc(C)c3Br)s2)c1  human ETA receptors (Homo sapiens, UniProt P25101)           =     4.82
12      Cc1noc(NS(=O)(=O)c2cc3ccccc3n2C)c1Br  human ETA receptors (Homo sapiens, UniProt P25101)           =     4.11
13  COc1cccc(-c2ccc(S(=O)(=O)Nc3onc(C)c3Br)s2)c1  human ETA receptors (Homo sapiens, UniProt P25101)           =     4.63
14  Cc1noc(NS(=O)(=O)c2ccsc2CC(O)c2ccc3c(c2)OCO3)c1Cl (stereo not drawn)  human ETA receptors (Homo sapiens, UniProt P25101)           =     7.28
15  Cc1cc2c(cc1CC(=O)c1sccc1S(=O)(=O)Nc1onc(C)c1Cl)OCO2  human ETA receptors (Homo sapiens, UniProt P25101)           =     8.49
16  Cc1noc(NS(=O)(=O)c2ccc(-c3ccc(C(=O)O)cc3)s2)c1Br  human ETA receptors (Homo sapiens, UniProt P25101)           <     4.00
17  Cc1noc(NS(=O)(=O)c2ccsc2C(=O)c2ccc3c(c2)OCO3)c1Br  human ETA receptors (Homo sapiens, UniProt P25101)           =     5.70
18  Cc1noc(NS(=O)(=O)c2sccc2CC=Cc2cc3c(cc2CO)OCO3)c1Br  human ETA receptors (Homo sapiens, UniProt P25101)           =     7.10
19  Cc1onc(NS(=O)(=O)c2c(Cc3ccc4c(c3)OCO4)sc3ccccc23)c1Cl  human ETA receptors (Homo sapiens, UniProt P25101)           =     8.26
20  Cc1noc(NS(=O)(=O)c2ccsc2CCc2ccc3c(c2)OCO3)c1Br  human ETA receptors (Homo sapiens, UniProt P25101)           =     6.68
